Test: Clearance in Sprague-Dawley rat at 2 mg/kg, iv or 10 mg/kg, po
Assay type: ADME, organism-based
Conditions: in vivo
Parameter: clearance. Scope: all listed entries.
Lab book: enter the figure in mL/min/kg, no units written.

# example entries with known answers
OC[C@H]1O[C@@H](c2cc(Cc3cc4ccccc4s3)c(Cl)cc2O)[C@H](O)[C@@H](O)C1(F)F; 3.92
COc1cc(O)c([C@@H]2O[C@H](CO)C(F)(F)[C@H](O)[C@H]2O)cc1Cc1ccc2c(c1)CCCO2; 75.6
COc1ccc(Cc2cc([C@@H]3O[C@H](CO)C(F)(F)[C@H](O)[C@H]3O)c(O)cc2Cl)cc1; 10.9

Fill in: clearance of "COc1cc(O)c([C@@H]2O[C@H](CO)[C@@](C)(F)[C@H](O)[C@H]2O)cc1Cc1ccc2c(c1)OCCO2" is ___
72

====

Assay: Half life in Sprague-Dawley rat at 2 mg/kg, iv
Format: ADME, organism-based
Conditions: in vivo
# Lookup of reported half-life keyed by entry
The figure you give is taken to be in h; do not add the unit.

Known results for compounds:
COc1cc(O)c([C@@H]2O[C@H](CO)C(F)(F)[C@H](O)[C@H]2O)cc1Cc1ccc2c(c1)CCCO2; 2.28
COc1ccc(Cc2cc([C@@H]3O[C@H](CO)C(F)(F)[C@H](O)[C@H]3O)c(O)cc2Cl)cc1; 4.85
OC[C@H]1O[C@@H](c2cc(Cc3cc4ccccc4s3)c(Cl)cc2O)[C@H](O)[C@@H](O)C1(F)F; 3.71

Query compound follows.
Give its half-life value. Item: "COc1cc(O)c([C@@H]2O[C@H](CO)[C@@](C)(F)[C@H](O)[C@H]2O)cc1Cc1ccc2c(c1)OCCO2"
1.52

====

Assay: Stability of compound in human liver microsomes assessed as parent compound remaining at 1 uM measured at 10 mins in presence of NADPH
Assay type: ADME, Microsome
Conditions: liver microsomes, read-out: Stabilty
readout_kind: remaining at 10 min, 1 µM (%)
Report the figure in % without appending any unit label.

# remaining at 10 min, 1 µM lookup, item "COc1cc(O)c([C@@H]2O[C@H](CO)C(F)(F)[C@H](O)[C@H]2O)cc1Cc1cc2ccccc2s1"
103

# query: remaining at 10 min, 1 µM of entry "COc1cc(O)c([C@@H]2O[C@H](CO)[C@@](C)(F)[C@H](O)[C@H]2O)cc1Cc1ccc2c(c1)OCCO2"
103

So what does the record say about remaining at 10 min, 1 µM for "C[C@]1(F)[C@H](O)[C@@H](O)[C@H](c2cc(Cc3cc4ccccc4s3)c(Cl)cc2O)O[C@@H]1CO" ?
89

====

Quick list: remaining at 10 min, 1 µM per entry.
Experiment: Stability of compound in mouse liver microsomes assessed as parent compound remaining at 1 uM measured at 10 mins in presence of NADPH
Assay type: ADME, Microsome
Conditions: read-out: Stabilty
A number alone suffices; assume %.

OC[C@H]1O[C@@H](c2cc(Cc3ccc4c(c3)OCCO4)c(Cl)cc2O)[C@H](O)[C@@H](O)C1(F)F; 74
COc1cc(O)c([C@@H]2O[C@H](CO)C(F)(F)[C@H](O)[C@H]2O)cc1Cc1cc2ccccc2s1; 111

Switching to the query record.
remaining at 10 min, 1 µM lookup needed for "C[C@]1(F)[C@H](O)[C@@H](O)[C@H](c2cc(Cc3cc4ccccc4s3)c(Cl)cc2O)O[C@@H]1CO" , thanks.
105

Attribution: ChEMBL document CHEMBL4725317
